# target_under_test: T1, huNav1.7α + β1 (HEKa/β1) (human, UniProt Q15858 1-1988; Q07699 19-218)
# T1 construct: also called HEKa/β1 huNav1.7α
# test_method_notes: binding FACS, HEKa/β1 cells

binder	EC50 [nM]
F010301629 (VHH, G50S vs F0103362B08 (Kabat)) VHH: EVQLVESGGGLVQAGGSLRLSCAASVRPFSTSAMGWFRQAPEKEREAVASILWNGIVTYYADSVKGRFTISRDNAKNEVYLQMNKLKPEDTAVYYCALDRDYGGRSFSAYEYEYWGQGTLVTVSS	42
F010301595 (VHH, D97A vs F0103362B08 (Kabat)) VHH: EVQLVESGGGLVQAGGSLRLSCAASVRPFSTSAMGWFRQAPEKEREAVAGILWNGIVTYYADSVKGRFTISRDNAKNEVYLQMNKLKPEDTAVYYCALDRAYGGRSFSAYEYEYWGQGTLVTVSS	17
